# protocol_summary: OVCAR3 ovarian xenograft model
# settings: female, SCID Hairless Outbred (SHO), mouse, in vivo, ip
measurement_label: MTD (mg/kg)
Express it in mg/kg; write the number only.

# MTD of CC(=O)O[C@H]1C(=O)[C@@]2(C)[C@H]([C@H](OC(=O)c3ccccc3)[C@]3(O)C[C@H](OC(=O)[C@H](O)[C@@H](NC(=O)c4ccccc4)c4ccccc4)C(C)=C1C3(C)C)[C@]1(OC(C)=O)CO[C@@H]1C[C@@H]2O [paclitaxel, reference compound] = 60

The measured values listed here are drawn from patent US9433687B2.
